assay: Oral and intravenous bioavailability study of MX via a single bolus administration to Sprague Dawley rats (plasma LC-MS/MS, noncompartmental PK); assay type: in vivo; conditions: female, Sprague-Dawley, rat, in vivo, iv, 20 mg/kg
readout: AUC(0-inf) (ng·h/mL)

>>> assayvalue("CON")
13100

----------
experiment: Oral and intravenous bioavailability study of MX via a single bolus administration to Sprague Dawley rats (plasma LC-MS/MS, noncompartmental PK); format: in vivo; details: male, Sprague-Dawley, rat, in vivo, iv, 20 mg/kg
readout: half-life

>>> assayvalue("CON")
"5.2 h"

----------
assay: Oral and intravenous bioavailability study of MX via a single bolus administration to Sprague Dawley rats (plasma LC-MS/MS, noncompartmental PK); assay type: in vivo; conditions: female, Sprague-Dawley, rat, in vivo, po, 20 mg/kg
readout: AUC(0-t)

>>> assayvalue("CON [MX, Methoxyamine]")
"11600 ng·h/mL"
